Reference for the values: the supplement of paper PMC10065799

target: c-Src SH2; assay: SH2 binding enrichment of the phosphorylated peptide, bacterial display (enrichment ratio); higher = better substrate or ligand; peptides without Tyr show the background;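 note: peptide library displayed on the E. coli surface as eCPX fusions, selected cells deep-sequenced, score is each peptide's frequency after selection divided by its frequency in the input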
test_readout: SH2 binding enrichment

Example cases with answers are listed next.
{"chain": "KDPPDYKYQPR [SOX9_Y172_H169P]", "SH2 binding enrichment": 0.503}
{"chain": "GSSSSYGQHGS [HRNR_Y517]", "SH2 binding enrichment": 0.375}
{"chain": "VSSPKYGGDDE [TMCC2_Y473_S475G]", "SH2 binding enrichment": 0.482}

1 = IFHENYNAGTF [CFI_Y421_YF]
2 = HNQDGYSFPSR [LDLR_Y845_YF]
[Q] Form: Entry with minimum SH2 binding enrichment (choose one): 1 / 2 Kindly state the label of the option you pick.
[A] 1
(1: 0.479, 2: 4.23)

---

molecular target: Fyn (UniProt P06241); assay: phosphorylation enrichment, bacterial display (enrichment ratio); higher = better substrate or ligand; peptides without Tyr show the background
Sequence (P06241 whole entry, looked up): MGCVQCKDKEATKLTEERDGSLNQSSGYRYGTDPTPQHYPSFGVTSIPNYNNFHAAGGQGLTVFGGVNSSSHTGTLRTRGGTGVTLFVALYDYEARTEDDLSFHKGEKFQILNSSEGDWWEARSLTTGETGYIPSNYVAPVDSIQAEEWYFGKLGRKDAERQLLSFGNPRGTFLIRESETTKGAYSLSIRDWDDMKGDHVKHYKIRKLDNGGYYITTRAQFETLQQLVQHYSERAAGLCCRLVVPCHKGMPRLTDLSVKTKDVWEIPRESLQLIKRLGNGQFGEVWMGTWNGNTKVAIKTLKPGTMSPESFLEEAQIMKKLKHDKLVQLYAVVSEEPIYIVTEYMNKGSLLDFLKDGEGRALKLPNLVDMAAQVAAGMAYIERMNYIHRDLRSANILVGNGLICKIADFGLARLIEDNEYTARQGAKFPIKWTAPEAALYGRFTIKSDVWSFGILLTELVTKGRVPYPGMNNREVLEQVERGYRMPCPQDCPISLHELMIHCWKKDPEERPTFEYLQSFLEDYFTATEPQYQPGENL
test_readout: phosphorylation enrichment
Answer with a bare number; do not write a unit.

Example cases with answers are listed next.
{"chain": "QITQVCGFFDE [PPP2CA_Y127_Y127C_YF]", "phosphorylation enrichment": 0.434}
{"chain": "HHTNEYEYDEL [TGM1_Y134_D132N]", "phosphorylation enrichment": 0.952}
{"chain": "NPQKSCFIRLY [WAS_Y83_Y83C]", "phosphorylation enrichment": 0.504}
{"chain": "LKMLVYLDMSK [LRRC7_Y234]", "phosphorylation enrichment": 0.654}
{"chain": "DNPAKYFILEN [DPP10_Y512_S517N]", "phosphorylation enrichment": 0.459}

[Q] // lookup phosphorylation enrichment for TESNNYIFKTL [FAM83B_Y637_YF]
[A] 0.528

[Q] And LRSKQYLRNPP [SHC1_Y315_F312S] ?
[A] 0.452

[Q] And IRTIDYRFTVS [IDS_Y497_W502S_YF] ?
[A] 0.424

[Q] And ADIETYLLEKS [MYH7_Y266] ?
[A] 0.554

[Q] And ELTAKYLNFFR [P3H4_Y181_Q186R_YF] ?
[A] 0.444

[Q] And SIDLGYHKDLQ [NF1_Y1169_G1166D] ?
[A] 0.51

---

target: EPHB2 (UniProt P29323); assay: phosphorylation enrichment, bacterial display (enrichment ratio); higher = better substrate or ligand; peptides without Tyr show the background
Sequence (P29323 whole entry, looked up): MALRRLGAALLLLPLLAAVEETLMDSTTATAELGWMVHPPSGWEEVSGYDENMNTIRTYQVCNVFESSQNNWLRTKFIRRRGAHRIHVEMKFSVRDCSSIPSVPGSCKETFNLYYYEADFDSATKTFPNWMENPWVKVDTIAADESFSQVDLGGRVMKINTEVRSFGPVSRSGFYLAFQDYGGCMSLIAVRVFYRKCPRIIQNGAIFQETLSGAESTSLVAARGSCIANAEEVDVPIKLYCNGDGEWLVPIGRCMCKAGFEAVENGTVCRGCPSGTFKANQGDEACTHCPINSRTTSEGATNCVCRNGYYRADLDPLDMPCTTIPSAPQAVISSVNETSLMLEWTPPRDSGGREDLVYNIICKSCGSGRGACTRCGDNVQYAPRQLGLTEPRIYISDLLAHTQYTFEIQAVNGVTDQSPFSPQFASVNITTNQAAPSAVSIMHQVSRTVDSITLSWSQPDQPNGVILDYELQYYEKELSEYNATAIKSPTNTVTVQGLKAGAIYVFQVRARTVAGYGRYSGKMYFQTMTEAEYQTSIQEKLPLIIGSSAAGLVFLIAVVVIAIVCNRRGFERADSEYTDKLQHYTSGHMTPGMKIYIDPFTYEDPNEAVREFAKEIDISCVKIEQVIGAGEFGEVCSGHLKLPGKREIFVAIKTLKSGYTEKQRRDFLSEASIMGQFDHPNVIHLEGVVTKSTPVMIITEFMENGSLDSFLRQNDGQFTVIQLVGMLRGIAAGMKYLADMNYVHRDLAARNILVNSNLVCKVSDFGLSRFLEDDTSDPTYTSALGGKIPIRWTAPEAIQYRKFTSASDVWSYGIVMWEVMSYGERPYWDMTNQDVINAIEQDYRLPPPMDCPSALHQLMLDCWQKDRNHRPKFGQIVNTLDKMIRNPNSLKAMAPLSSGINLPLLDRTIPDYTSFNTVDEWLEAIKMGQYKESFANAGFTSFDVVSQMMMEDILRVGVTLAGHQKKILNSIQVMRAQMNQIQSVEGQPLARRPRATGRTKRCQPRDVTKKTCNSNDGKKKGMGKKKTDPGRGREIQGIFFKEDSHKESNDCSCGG
test_readout: phosphorylation enrichment
Answer with a bare number; do not write a unit.

Example cases with answers are listed next.
{"chain": "LLQAEYWHDPI [PPT1_Y185_V181L]", "system_under_test": "EPHB2 (UniProt P29323)", "phosphorylation enrichment": 0.511}
{"chain": "EEQKKNFNAMK [SCN5A_Y1494_Y1494N_YF]", "system_under_test": "EPHB2 (UniProt P29323)", "phosphorylation enrichment": 0.494}
{"chain": "WYQTKYEELQV [KRT6B_Y360_I365V]", "system_under_test": "EPHB2 (UniProt P29323)", "phosphorylation enrichment": 0.707}
{"chain": "AIIEEYLHLSD [EIF4G1_Y1253_N1257S]", "system_under_test": "EPHB2 (UniProt P29323)", "phosphorylation enrichment": 0.698}
{"chain": "GRLFAYPDTHC [CAT_Y358_R363C]", "system_under_test": "EPHB2 (UniProt P29323)", "phosphorylation enrichment": 0.512}
{"chain": "FNSLPYQVPTS [CALCOCO2_Y358]", "system_under_test": "EPHB2 (UniProt P29323)", "phosphorylation enrichment": 0.504}

[Q] // lookup phosphorylation enrichment for FYDANCDGKEY [MAPRE2_Y162_Y162C]
[A] 0.682

[Q] And LLVVLCKFRCF [PSEN1_Y154_Y154C_YF] ?
[A] 0.694

[Q] And ACVARYIFKRL [LPCAT3_Y348_W344C] ?
[A] 0.51

---

A collection of sequences and their measured phosphorylation enrichment
target: FGFR3 (UniProt P22607); experiment: phosphorylation enrichment, bacterial display (enrichment ratio); higher = better substrate or ligand; peptides without Tyr show the background
Sequence (P22607 whole entry, looked up): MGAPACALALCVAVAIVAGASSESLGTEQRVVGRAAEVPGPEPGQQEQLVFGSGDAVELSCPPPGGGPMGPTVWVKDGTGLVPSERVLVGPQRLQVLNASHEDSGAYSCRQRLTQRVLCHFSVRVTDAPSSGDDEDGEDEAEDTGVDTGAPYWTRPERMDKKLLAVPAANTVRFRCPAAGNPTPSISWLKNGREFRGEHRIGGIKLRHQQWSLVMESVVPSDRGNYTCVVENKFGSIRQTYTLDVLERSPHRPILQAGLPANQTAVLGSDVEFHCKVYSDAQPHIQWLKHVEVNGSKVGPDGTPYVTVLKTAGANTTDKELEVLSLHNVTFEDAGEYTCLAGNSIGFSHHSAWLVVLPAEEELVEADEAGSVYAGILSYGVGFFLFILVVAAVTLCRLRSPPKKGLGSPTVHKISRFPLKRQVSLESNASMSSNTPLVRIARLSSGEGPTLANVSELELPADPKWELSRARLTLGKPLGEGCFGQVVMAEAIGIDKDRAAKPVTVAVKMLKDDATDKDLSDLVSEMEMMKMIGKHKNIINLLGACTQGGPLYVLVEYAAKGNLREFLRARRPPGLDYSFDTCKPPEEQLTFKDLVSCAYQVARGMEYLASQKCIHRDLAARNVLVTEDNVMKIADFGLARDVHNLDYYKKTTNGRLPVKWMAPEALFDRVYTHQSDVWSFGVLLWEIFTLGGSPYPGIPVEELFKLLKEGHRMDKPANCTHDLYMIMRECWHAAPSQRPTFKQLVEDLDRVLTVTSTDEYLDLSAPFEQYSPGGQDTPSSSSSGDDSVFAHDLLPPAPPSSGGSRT
Answer with a bare number; do not write a unit.

{"chain": "RVLHNYLVWCV [ECEL1_Y400_R404C]", "system_under_test": "FGFR3 (UniProt P22607)", "phosphorylation enrichment": 1.02}
{"chain": "PAGSGYPAYLG [ATP6V1A_Y374_D371G]", "system_under_test": "FGFR3 (UniProt P22607)", "phosphorylation enrichment": 0.914}
{"chain": "SVTCTYSPALH [TP53_Y126_N131H]", "system_under_test": "FGFR3 (UniProt P22607)", "phosphorylation enrichment": 0.724}

Consider the record given below.
[Q] // lookup phosphorylation enrichment for SRPHLYGTPSR [ADGRE2_Y670]
[A] 0.619

---

test system: AncSZ; assay: phosphorylation enrichment, bacterial display (enrichment ratio); higher = better substrate or ligand; peptides without Tyr show the background
test_readout: phosphorylation enrichment
Answer with a bare number; do not write a unit.

Example cases with answers are listed next.
{"chain": "MHYSNYVSKGS [PDGFRA_Y849_D846Y]", "phosphorylation enrichment": 0.617}
{"chain": "SSMIDYNPLEK [MYOC_Y479]", "phosphorylation enrichment": 0.971}
{"chain": "GGDAVYTNGTI [RFX2_Y82_A86T]", "phosphorylation enrichment": 0.778}
{"chain": "EYFDGYWGYSV [ITGA2B_Y265]", "phosphorylation enrichment": 3.58}
{"chain": "ADEQIYWQIAA [CSKtide_2014]", "phosphorylation enrichment": 2.59}
{"chain": "TCRPPYFHRNC [HGD_Y333_F329C_YF]", "phosphorylation enrichment": 1.05}

[Q] // lookup phosphorylation enrichment for AAYNKYDQERF [CDC73_Y293_R292K]
[A] 0.54

[Q] And FSPCDYQPCLA [TNS1_Y798_Y796C_YF] ?
[A] 1.84

[Q] And AIIEEYLHLSD [EIF4G1_Y1253_N1257S] ?
[A] 1.24

[Q] And GHPFAYDWISI [BEST1_Y227_L224P_YF] ?
[A] 1.04

[Q] And NGVSFYINLCQ [IGF2R_Y2025_YF] ?
[A] 1.5

[Q] And VDSGVYAVPPP [BCAR1_Y410] ?
[A] 2.04

[Q] And MFRVQYNSSVD [LRFN1_Y458_Q455R_YF] ?
[A] 0.769

[Q] And QTSTDYDIRFY [CSNK2A1_Y131_L128S] ?
[A] 1.46

[Q] And RETSLYKACER [ASB2_Y162_P160S] ?
[A] 1

---

molecular target: FGFR1 (UniProt P11362); assay: phosphorylation enrichment, bacterial display (enrichment ratio); higher = better substrate or ligand; peptides without Tyr show the background
Sequence (P11362 whole entry, looked up): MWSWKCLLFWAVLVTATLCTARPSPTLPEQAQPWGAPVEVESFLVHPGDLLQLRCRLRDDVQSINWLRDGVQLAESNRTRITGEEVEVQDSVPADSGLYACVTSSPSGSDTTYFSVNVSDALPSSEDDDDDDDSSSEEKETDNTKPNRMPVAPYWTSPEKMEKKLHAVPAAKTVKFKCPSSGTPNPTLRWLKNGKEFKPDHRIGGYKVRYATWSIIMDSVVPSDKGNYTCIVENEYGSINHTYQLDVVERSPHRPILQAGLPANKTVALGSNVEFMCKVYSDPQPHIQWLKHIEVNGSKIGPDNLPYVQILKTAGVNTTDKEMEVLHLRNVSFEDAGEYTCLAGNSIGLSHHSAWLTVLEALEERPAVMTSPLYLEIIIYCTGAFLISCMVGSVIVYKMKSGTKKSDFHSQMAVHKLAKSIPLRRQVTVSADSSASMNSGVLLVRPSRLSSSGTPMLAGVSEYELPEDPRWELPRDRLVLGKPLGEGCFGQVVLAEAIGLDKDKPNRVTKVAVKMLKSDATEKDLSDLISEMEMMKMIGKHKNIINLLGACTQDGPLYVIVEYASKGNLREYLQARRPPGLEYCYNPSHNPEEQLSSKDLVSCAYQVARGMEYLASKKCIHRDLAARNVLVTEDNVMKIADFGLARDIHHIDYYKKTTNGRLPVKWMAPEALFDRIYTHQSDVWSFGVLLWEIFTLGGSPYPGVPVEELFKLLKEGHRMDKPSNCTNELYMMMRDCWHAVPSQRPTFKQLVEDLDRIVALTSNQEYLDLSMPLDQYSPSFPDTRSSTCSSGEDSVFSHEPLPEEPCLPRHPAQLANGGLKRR
A collection of sequences and their measured phosphorylation enrichment
Answer with a bare number; do not write a unit.

[Q] // lookup phosphorylation enrichment for DTLMEYLENPK [CYCS_Y68]
[A] 0.511

[Q] And EYKDAYKFAAD [BRDT_Y335] ?
[A] 0.511

[Q] And HNVPIYEGFGL [ACTA1_Y168_A172G_YF] ?
[A] 0.507

---

target: FGFR3 (UniProt P22607); assay: phosphorylation enrichment, bacterial display (enrichment ratio); higher = better substrate or ligand; peptides without Tyr show the background
test_readout: phosphorylation enrichment
Answer with a bare number; do not write a unit.

Example cases with answers are listed next.
{"chain": "MAYDRYAAICS [OR8H2_Y123_H120Y]", "phosphorylation enrichment": 0.687}
{"chain": "MYQVQYNSSVD [LRFN1_Y458]", "phosphorylation enrichment": 0.686}

[Q] // lookup phosphorylation enrichment for EEAAGYAQESQ [CAMKV_Y491]
[A] 0.691

[Q] And FDKEFYSVHNK [MET_Y1235_YF] ?
[A] 0.717

[Q] And DGFTDYAEFAK [MCFD2_Y138_I136T_YF] ?
[A] 0.752

[Q] And LTKQEYDEAGP [ACTA1_Y364_I359L] ?
[A] 1.07

[Q] And LVTRSYLLGNS [LMNA_Y646] ?
[A] 0.939

[Q] And LGNFNYEQRGA [API5_Y497] ?
[A] 0.507

[Q] And FGAHNHHPLPV [OAT_Y55_Y55H_YF] ?
[A] 0.694

[Q] And GVRLYYRVMES [RB1_Y454] ?
[A] 0.711

[Q] And TVHCDYLNISH [TAF1L_Y1385_P1389S] ?
[A] 1.69

[Q] And TNLVPYPRIHF [TUBA1A_Y262] ?
[A] 0.471

[Q] And PKGTGYIKTEL [STAT1_Y701] ?
[A] 1.01

[Q] And ATPKGYELDAS [OTC_Y223_P225L] ?
[A] 0.557

[Q] And LRSKQYLRNPP [SHC1_Y315_F312S] ?
[A] 0.37

[Q] And PYADPYYDYEI [ZC3H18_Y371] ?
[A] 19.8

[Q] And TWNPKYTLRSH [STRN3_Y474] ?
[A] 0.54

[Q] And SGASGYSATST [CERT1_Y143] ?
[A] 0.446
